test: Bioavailability in fasted BALB/c mouse at 20 mg/kg, iv administered upto 600 mins by HPLC-MS/MS analysis; type: ADME, organism-based; conditions: in vivo
Collected bioavailability values appear next to each entry.
# unit: % | format: bare number

compound	value type	value
CC(C)NC[C@@H]1C[C@H](c2ccc3c(N)ncnn23)[C@@H](O)[C@H]1O	bioavailability	12
CC(C)NC[C@H]1C[C@@H](c2ccc3c(N)ncnn23)[C@H](O)[C@@H]1O	bioavailability	9

Now take the following compound into account.
Q: Item under review: CN(CCCNC(=O)Nc1ccc(C(C)(C)C)cc1)C[C@H]1C[C@@H](c2ccc3c(N)ncnn23)[C@H](O)[C@@H]1O (stereo in doubt; (-)-25) . Reported bioavailability?
A: 0.3
